Tested on: TO-N3-2 (biotin conjugate)
testProtocol: pull-down binding Z-score (relative to library population); higher = stronger binding
runParameters: RNA library: Library-2
So I've got a bunch of sequences here, and I need their pull-down binding Z-score values.
One number for each entry.

Batch request: pull-down binding Z-score per item, same order as input.
1. UGGUGGGAGAGGAGCCCCACUGUGGAAGUCUGACCCCCACA [hsa-mir-6785]
2. GGGCGGAACACCCAGCCCC [hsa-mir-4417]
3. CAUUUGUGGCAUGGACCAUUUGUG [hsa-mir-4504]
4. UCCACCCUGGUCCAGGUCCACAGCAGUGGA [hsa-mir-4644]
5. CACUCAGGCAGUGCCAUGAGC [hsa-mir-6811]
6. AGGGCCUUCUGAGCCCAGGUCCG [hsa-mir-6716]

Found:
[1.86, 0.785, -0.813, 0.479, 0.422, 1.46]

Batch request: pull-down binding Z-score per item, same order as input.
1. AAGGUAAAACCAACAGUGGUUGUUAAUGCAGCCAAUGUUUACCUU [DMSMaPseq_invitro_SARS-CoV-2_Motif_60]
2. CUCUGCUGUGUAAAUAGUUCUGAGUAGU [hsa-mir-454]

Found:
[-0.952, 0.574]

Batch request: pull-down binding Z-score per item, same order as input.
1. UGCAGAUUUGGAUGAUUUCUCCAAACAAUUGCA
2. GAGGUCUUCCCAUGCUAAGAAGUCCUC [hsa-mir-2116]

Found:
[-0.51, -0.154]
